biological target: human P2X4 (Homo sapiens, UniProt Q99571); construct: expressed in transfected cells; assay: Human P2X4 HEK Cell FLIPR Assay; type: cell-based; details: HEK293 stably expressing human P2X4; agonist Bz-ATP 3 μM (EC80)
Sequence (Q99571 whole entry): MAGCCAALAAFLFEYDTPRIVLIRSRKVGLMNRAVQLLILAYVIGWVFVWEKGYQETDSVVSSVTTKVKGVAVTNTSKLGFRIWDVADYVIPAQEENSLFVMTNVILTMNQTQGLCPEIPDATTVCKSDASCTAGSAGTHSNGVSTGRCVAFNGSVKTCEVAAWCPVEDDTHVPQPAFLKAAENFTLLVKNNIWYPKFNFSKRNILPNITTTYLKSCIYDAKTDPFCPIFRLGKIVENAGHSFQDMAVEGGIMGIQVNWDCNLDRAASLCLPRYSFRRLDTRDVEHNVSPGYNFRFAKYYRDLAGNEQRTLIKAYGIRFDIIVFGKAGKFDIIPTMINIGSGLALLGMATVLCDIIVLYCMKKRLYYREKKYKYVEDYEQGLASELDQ
In this section we review reported Human P2X4 HEK Cells (FLIPR Assay) avg Efficacy values for a set of compounds.
Only the number, expressed in %, is required.

Please review the following examples before continuing.
>>> df
                               smilesstring  testvalue
0  CC(=O)N(c1cc(C)cc(C#N)c1)c1cc(NC(=O)Cc2ccccc2Cl)ccn1         97
1  CC(=O)N(c1ccc(Cl)c(C#N)c1)c1cc(NC(=O)Cc2cccc(F)c2Cl)ccn1         99
2  CC(=O)N(c1cccc(C(F)F)c1)c1cc(NC(=O)Cc2cccc(F)c2Cl)ccn1        100
3  CC(=O)N(c1ccc(S(C)(=O)=O)c(F)c1)c1cc(NC(=O)Cc2cccc(F)c2Cl)ccn1         97
4  CC(=O)N(c1ccc(Cl)c(C#N)c1)c1cc(NC(=O)Cc2c(Cl)cccc2Cl)ccn1        103
5  CC(=O)N(c1ccc(F)c(C#N)c1)c1cc(NC(=O)Cc2cccc(C(F)(F)F)c2Cl)ccn1         99
6  CC(=O)N(c1ccc(Cl)c(F)c1)c1cc(NC(=O)Cc2ccc(F)cc2Cl)ccn1         97
7  CC(=O)N(c1ccc(F)c(F)c1)c1cc(NC(=O)Cc2c(Cl)cccc2Cl)ccn1         97
8  CC(=O)N(c1ccc(C)c(Cl)c1)c1cc(NC(=O)Cc2c(F)cccc2Cl)ccn1        101
9  CC(=O)N(c1cc(F)cc(F)c1)c1cc(NC(=O)Cc2cccc(F)c2Cl)cnn1         93

Now let's try a different one.
In one line, give reported Human P2X4 HEK Cells (FLIPR Assay) avg Efficacy of the entry `CC(=O)N(c1ccc(S(C)(=O)=O)c(Cl)c1)c1cc(NC(=O)Cc2cccc(F)c2Cl)ccn1` . 96

====

In this section we review reported IC50 values for a set of compounds.
Molecular target: human P2X4 (Homo sapiens)
Assay: Human P2X4 HEK Cell FLIPR Assay
Settings: HEK293 stably expressing human P2X4; agonist Bz-ATP 3 μM (EC80); read-out: Human P2X4 HEK Cells (FLIPR Assay) avg IC50
Experimental: Compounds were tested on a HEK293 cell line stably expressing human P2X4. Cells were cultured on poly-D-lysine-coated 384-well plates at a density of 15,000 cells/well and incubated overnight at 37° C., 5% CO2. P2X4 function was assessed by measuring intracellular calcium fluxes caused by Benzoylbenzoyl-ATP (Bz-ATP) using the calcium-chelating dye Fluo8-AM (Molecular Devices) with the Fluorescent Imaging Plate Reader Tetra (FLIPR^Tetra; Molecular Devices CA). […]
Only the number, expressed in nM, is required.

Please review the following examples before continuing.
In [3]: df
Out[3]:
                               smilesstring  testvalue
0  CC(=O)N(c1ccc(Cl)c(C#N)c1)c1cc(NC(=O)Cc2cccc(F)c2Cl)ccn1        437
1  COc1cc(F)cc(N(C(C)=O)c2cc(NC(=O)Cc3ccc(F)cc3Cl)ccn2)c1        665
2  CC(=O)N(c1ccc(F)c(C#N)c1)c1cc(NC(=O)Cc2c(Cl)cccc2Cl)ccn1        346
3  CC(=O)N(c1ccc(F)c(F)c1)c1cc(NC(=O)Cc2ccc(F)cc2Cl)ccn1        411

In one line, give reported IC50 of the entry `CC(=O)N(c1ccc(S(C)(=O)=O)c(Cl)c1)c1cc(NC(=O)Cc2ccccc2Cl)ccn1` . 644

In one line, give reported IC50 of the entry `CC(=O)N(c1ccc(F)cc1)c1cc(NC(=O)Cc2cccc(F)c2Cl)ccn1` . 212

In one line, give reported IC50 of the entry `CC(=O)N(c1ccc(C)c(Cl)c1)c1cc(NC(=O)Cc2cccc(F)c2Cl)ccn1` . 574

====

Molecular target: rat P2X4 (Rattus norvegicus, UniProt P51577)
Sequence (P51577 1-388): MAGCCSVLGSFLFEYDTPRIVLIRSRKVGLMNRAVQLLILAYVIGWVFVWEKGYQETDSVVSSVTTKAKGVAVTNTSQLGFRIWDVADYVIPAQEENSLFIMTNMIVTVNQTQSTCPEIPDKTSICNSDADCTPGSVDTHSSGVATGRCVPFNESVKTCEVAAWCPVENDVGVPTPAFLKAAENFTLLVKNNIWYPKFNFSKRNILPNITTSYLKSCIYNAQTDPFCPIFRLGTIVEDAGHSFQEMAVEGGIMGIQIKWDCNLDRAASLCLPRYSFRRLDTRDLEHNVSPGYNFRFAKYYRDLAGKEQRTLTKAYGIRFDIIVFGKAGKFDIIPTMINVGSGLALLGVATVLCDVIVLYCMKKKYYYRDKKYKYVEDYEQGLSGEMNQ
Test: FLIPR Method for Rat P2X4 1321N1 Astrocytoma Cells
Conditions: 1321N1 stably expressing rat P2X4; agonist MgATP 5 μM (EC80)
In this section we review reported IC50 values for a set of compounds.
Only the number, expressed in µM, is required.

Please review the following examples before continuing.
>>> df
                               smilesstring  testvalue
0  CC(=O)N(c1ccc(F)cc1)c1cc(NC(=O)Cc2c(C)cccc2C)ccn1       0.17
1  COc1cccc(N(C(C)=O)c2cc(NC(=O)Cc3ccccc3Cl)ccn2)c1      0.965
2  CC(=O)N(c1cc(NC(=O)Cc2cccc(F)c2Cl)ccn1)c1cc(F)ccc1Cl      0.567
3  CC(=O)N(c1ccc(Cl)c(F)c1)c1cc(NC(=O)Cc2ccc(F)cc2Cl)ccn1       0.24

Now let's try a different one.
In one line, give reported IC50 of the entry `CCCC(=O)N(c1ccc(F)cc1)c1cc(NC(=O)Cc2ccc(F)cc2Cl)ccn1` . 0.726

====

Target: human P2X4 (Homo sapiens)
Test: Human P2X4 HEK Cell FLIPR Assay
Conditions: HEK293 stably expressing human P2X4; agonist Bz-ATP 3 μM (EC80); read-out: Human P2X4 HEK Cells (FLIPR Assay) avg IC50
Method: Compounds were tested on a HEK293 cell line stably expressing human P2X4. Cells were cultured on poly-D-lysine-coated 384-well plates at a density of 15,000 cells/well and incubated overnight at 37° C., 5% CO2. P2X4 function was assessed by measuring intracellular calcium fluxes caused by Benzoylbenzoyl-ATP (Bz-ATP) using the calcium-chelating dye Fluo8-AM (Molecular Devices) with the Fluorescent Imaging Plate Reader Tetra (FLIPR^Tetra; Molecular Devices CA). […]
In this section we review reported IC50 values for a set of compounds.
Only the number, expressed in nM, is required.

Please review the following examples before continuing.
>>> print(df.to_string())
                                   compound            systemundertest  measuredparameter  unitname  testvalue
0  CC(=O)N(c1ccc(F)c(F)c1)c1cc(NC(=O)Cc2ccc(Cl)cc2Cl)ccn1 [Example 67]  human P2X4 (Homo sapiens)               IC50        nM        604
1  CC(=O)N(c1ccc(F)cc1)c1cc(NC(=O)Cc2cccc(F)c2C(F)(F)F)ccn1 [Example 32]  human P2X4 (Homo sapiens)               IC50        nM        355
2  CC(=O)N(c1cc(NC(=O)Cc2cccc(F)c2Cl)ccn1)c1ccc(F)cc1Cl [Example 154]  human P2X4 (Homo sapiens)               IC50        nM        511
3  CC(=O)N(c1ccc(F)c(F)c1)c1cc(NC(=O)Cc2c(Cl)cc(F)cc2Cl)ccn1 [Example 73]  human P2X4 (Homo sapiens)               IC50        nM        428
4  CC(=O)N(c1cc(NC(=O)Cc2ccc(F)cc2Cl)ccn1)c1ccc(C)cc1C [Example 174]  human P2X4 (Homo sapiens)               IC50        nM        528
5  CC(=O)N(c1cc(F)cc(C#N)c1)c1cc(NC(=O)Cc2ccc(F)cc2Cl)ccn1 [Example 149]  human P2X4 (Homo sapiens)               IC50        nM        450
6  COc1cc(F)cc(N(C(C)=O)c2cc(NC(=O)Cc3c(Cl)cccc3Cl)ccn2)c1 [Example 162]  human P2X4 (Homo sapiens)               IC50        nM        577
7  CC(=O)N(c1cccc(C(F)F)c1)c1cc(NC(=O)Cc2cccc(F)c2Cl)ccn1 [Example 4]  human P2X4 (Homo sapiens)               IC50        nM        397
8  CC(=O)N(c1ccccc1)c1cc(NC(=O)Cc2ccccc2Cl)ccn1 [Example 25]  human P2X4 (Homo sapiens)               IC50        nM        524
9  CC(=O)N(c1cc(NC(=O)Cc2ccc(F)cc2Cl)ccn1)c1ccccc1C(F)F [Example 169]  human P2X4 (Homo sapiens)               IC50        nM        813

In one line, give reported IC50 of the entry CC(=O)N(c1ccc(F)cc1)c1cc(NC(=O)Cc2ccccc2C(F)(F)F)ccn1 [Example 30] . 384

In one line, give reported IC50 of the entry CC(=O)N(c1ccc(Cl)c(F)c1)c1cc(NC(=O)Cc2ccccc2Cl)ccn1 [Example 58] . 351

In one line, give reported IC50 of the entry CC(=O)N(c1cc(F)cc(C#N)c1)c1cc(NC(=O)Cc2c(F)cccc2Cl)ccn1 [Example 148] . 436

In one line, give reported IC50 of the entry CC(=O)N(c1ccc(F)cc1)c1cc(NC(=O)Cc2ccccc2Cl)cnn1 [Example 192] . 766

In one line, give reported IC50 of the entry CC(=O)N(c1ccc(F)cc1)c1cc(NC(=O)Cc2c(Cl)cccc2C#N)ccn1 [Example 33] . 723

Every entry's value here was drawn from patent US20230257351A1.
